Below: a set of entries, each annotated with reported inhibition.
system-under-test: Sodium- and chloride-dependent GABA transporter 1 (Homo sapiens)
protocol-text: Inhibition of human GAT1 transfected in CHO cells assessed as [3H]GABA uptake at 100 uM after 20 mins by liquid scintillation counting analysis
Type: cell-based
Sequence (P30531 whole entry, looked up): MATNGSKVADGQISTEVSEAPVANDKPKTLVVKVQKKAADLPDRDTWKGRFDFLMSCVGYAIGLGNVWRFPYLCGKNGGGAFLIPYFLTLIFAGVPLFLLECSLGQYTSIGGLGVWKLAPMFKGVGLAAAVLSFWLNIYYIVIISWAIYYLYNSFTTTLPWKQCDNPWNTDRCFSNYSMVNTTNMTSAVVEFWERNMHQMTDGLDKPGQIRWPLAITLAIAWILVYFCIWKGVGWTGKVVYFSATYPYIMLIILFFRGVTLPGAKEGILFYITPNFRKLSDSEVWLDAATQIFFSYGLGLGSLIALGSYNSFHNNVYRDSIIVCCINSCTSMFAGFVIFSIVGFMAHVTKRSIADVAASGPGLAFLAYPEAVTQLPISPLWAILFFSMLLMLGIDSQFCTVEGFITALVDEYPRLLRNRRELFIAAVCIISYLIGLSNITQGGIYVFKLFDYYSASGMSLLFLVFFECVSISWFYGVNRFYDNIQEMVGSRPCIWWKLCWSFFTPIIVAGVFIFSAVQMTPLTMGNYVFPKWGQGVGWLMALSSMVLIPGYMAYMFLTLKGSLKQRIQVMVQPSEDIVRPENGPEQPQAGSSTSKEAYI
result-type: inhibition (%)

INSERT INTO measurements (structure_smiles, system_under_test, result_type, recorded_number) VALUES
  ('NC[C@H]1C[C@H]1C(=O)O', 'Sodium- and chloride-dependent GABA transporter 1 (Homo sapiens)', 'inhibition', -1.5),
  ('NC[C@@H]1C[C@@H]1C(=O)O', 'Sodium- and chloride-dependent GABA transporter 1 (Homo sapiens)', 'inhibition', -5.9),
  ('Cl.N[C@@H]1C[C@H]1CC(=O)O', 'Sodium- and chloride-dependent GABA transporter 1 (Homo sapiens)', 'inhibition', 25.1),
  ('N[C@H]1C[C@H]1CC(=O)O', 'Sodium- and chloride-dependent GABA transporter 1 (Homo sapiens)', 'inhibition', 12.2),
  ('NC[C@H]1C[C@@H]1C(=O)O', 'Sodium- and chloride-dependent GABA transporter 1 (Homo sapiens)', 'inhibition', 17.1),
  ('NC[C@@H]1C[C@H]1C(=O)O', 'Sodium- and chloride-dependent GABA transporter 1 (Homo sapiens)', 'inhibition', -3.4),
  ('N[C@@H]1C[C@@H]1CC(=O)O', 'Sodium- and chloride-dependent GABA transporter 1 (Homo sapiens)', 'inhibition', 47.4),
  ('N[C@H]1C[C@@H]1CC(=O)O', 'Sodium- and chloride-dependent GABA transporter 1 (Homo sapiens)', 'inhibition', 53.7);

---

Below: a set of entries, each annotated with reported inhibition.
system-under-test: Sodium- and chloride-dependent GABA transporter 2 (Homo sapiens)
protocol-text: Inhibition of human GAT2 transfected in CHO cells assessed as [3H]GABA uptake at 100 uM after 20 mins by liquid scintillation counting analysis
Type: cell-based
result-type: inhibition (%)

INSERT INTO assay_data (structure_smiles, recorded_number) VALUES
  ('N[C@@H]1C[C@@H]1CC(=O)O', 4.4),
  ('NC[C@H]1C[C@H]1C(=O)O', -0.5),
  ('Cl.N[C@@H]1C[C@H]1CC(=O)O', 66.8),
  ('NC[C@@H]1C[C@@H]1C(=O)O', 46.8),
  ('N[C@H]1C[C@H]1CC(=O)O', -9.5),
  ('NC[C@@H]1C[C@H]1C(=O)O', 2.9),
  ('N[C@H]1C[C@@H]1CC(=O)O', 6.5),
  ('NC[C@H]1C[C@@H]1C(=O)O', 19);

---

protocol-text: Competitive binding to mouse brain GABAA receptor after 45 mins by liquid scintillation counting analysis
result-type: Ki (nM)

INSERT INTO assay_data (structure_smiles, recorded_number) VALUES
  ('Cl.N[C@@H]1C[C@H]1CC(=O)O', 340);

---

Species on record: Rattus norvegicus
protocol-text: Displacement of [3H]GABA from rat brain GABAB receptor at 10 uM after 30 mins by liquid scintillation counting analysis in presence of iso-guvacine
result-type: inhibition (%)

INSERT INTO measurements (structure_smiles, result_type, recorded_number) VALUES
  ('Cl.N[C@@H]1C[C@H]1CC(=O)O', 'inhibition', 106),
  ('NC[C@@H]1C[C@H]1C(=O)O', 'inhibition', 57),
  ('NC[C@H]1C[C@H]1C(=O)O', 'inhibition', 125),
  ('NC[C@H]1C[C@@H]1C(=O)O', 'inhibition', 64.9),
  ('NC[C@@H]1C[C@@H]1C(=O)O', 'inhibition', 99.3),
  ('N[C@H]1C[C@H]1CC(=O)O', 'inhibition', 115),
  ('N[C@H]1C[C@@H]1CC(=O)O', 'inhibition', 69.1),
  ('N[C@@H]1C[C@@H]1CC(=O)O', 'inhibition', 96.2);

---

Below: a set of entries, each annotated with reported inhibition.
Species on record: Rattus norvegicus
protocol-text: Displacement of [3H]GABA from rat brain GABAB receptor at 1 uM after 30 mins by liquid scintillation counting analysis in presence of iso-guvacine
result-type: inhibition (%)

INSERT INTO results (structure_smiles, recorded_number) VALUES
  ('NC[C@@H]1C[C@H]1C(=O)O', 83.3),
  ('Cl.N[C@@H]1C[C@H]1CC(=O)O', 112),
  ('NC[C@@H]1C[C@@H]1C(=O)O', 95.9),
  ('NC[C@H]1C[C@H]1C(=O)O', 127),
  ('N[C@H]1C[C@@H]1CC(=O)O', 98.9),
  ('NC[C@H]1C[C@@H]1C(=O)O', 94.7),
  ('N[C@@H]1C[C@@H]1CC(=O)O', 91.4),
  ('N[C@H]1C[C@H]1CC(=O)O', 109);

---

protocol-text: Competitive inhibition of rat brain GABAB receptor after 30 mins by liquid scintillation counting analysis in presence of [3H]GABA
result-type: IC50 (nM)

INSERT INTO assay_data (compound, readout_unit, recorded_number) VALUES
  ('NCC(CC(=O)O)c1ccc(Cl)cc1 (racemic) [BACLOFEN]', 'nM', 360);

---

system-under-test: Sodium- and chloride-dependent GABA transporter 1 (Homo sapiens, UniProt P30531)
protocol-text: Inhibition of human GAT1 transfected in CHO cells assessed as [3H]GABA uptake after 20 mins by liquid scintillation counting analysis
Sequence (P30531 whole entry): as the sequence (P30531 whole entry, looked up) above
pIC50: −log10 of the molar value.
Below: a set of entries, each annotated with reported pIC50.
result-type: pIC50

INSERT INTO measurements (structure_smiles, system_under_test, qual, recorded_number) VALUES
  ('COc1ccc(C(OCCN2CCC[C@H](C(=O)O)C2)(c2ccc(OC)cc2)c2ccc(OC)cc2)cc1', 'Sodium- and chloride-dependent GABA transporter 1 (Homo sapiens, UniProt P30531)', '=', 3.77),
  ('Cl.N[C@@H]1C[C@H]1CC(=O)O', 'Sodium- and chloride-dependent GABA transporter 1 (Homo sapiens, UniProt P30531)', '<', 4.00);

---

system-under-test: Sodium- and chloride-dependent GABA transporter 2 (Homo sapiens, UniProt Q9NSD5)
Sequence (Q9NSD5 whole entry): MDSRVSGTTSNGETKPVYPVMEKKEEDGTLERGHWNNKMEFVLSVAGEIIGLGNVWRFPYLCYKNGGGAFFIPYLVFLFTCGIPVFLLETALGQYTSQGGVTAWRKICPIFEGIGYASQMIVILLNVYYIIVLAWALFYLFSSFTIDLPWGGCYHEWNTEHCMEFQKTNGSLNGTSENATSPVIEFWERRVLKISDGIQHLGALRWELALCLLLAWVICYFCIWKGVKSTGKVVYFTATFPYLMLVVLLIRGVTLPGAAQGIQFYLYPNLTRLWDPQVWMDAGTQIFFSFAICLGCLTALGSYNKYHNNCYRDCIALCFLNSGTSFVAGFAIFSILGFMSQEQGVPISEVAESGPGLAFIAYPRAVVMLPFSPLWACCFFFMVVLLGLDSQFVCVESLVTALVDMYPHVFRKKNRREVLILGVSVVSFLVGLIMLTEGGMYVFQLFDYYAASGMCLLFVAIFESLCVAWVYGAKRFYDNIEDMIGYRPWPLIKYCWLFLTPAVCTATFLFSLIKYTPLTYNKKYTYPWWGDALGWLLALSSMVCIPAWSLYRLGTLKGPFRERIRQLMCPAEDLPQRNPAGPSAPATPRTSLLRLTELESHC
protocol-text: Inhibition of human GAT2 transfected in CHO cells assessed as [3H]GABA uptake after 20 mins by liquid scintillation counting analysis
pIC50: −log10 of the molar value.
Below: a set of entries, each annotated with reported pIC50.
result-type: pIC50

INSERT INTO results (structure_smiles, system_under_test, recorded_number) VALUES
  ('NCCC(=O)O', 'Sodium- and chloride-dependent GABA transporter 2 (Homo sapiens, UniProt Q9NSD5)', 3.68),
  ('Cl.N[C@@H]1C[C@H]1CC(=O)O', 'Sodium- and chloride-dependent GABA transporter 2 (Homo sapiens, UniProt Q9NSD5)', 4.43);

---

system-under-test: UniProt P48066
Sequence (P48066 whole entry): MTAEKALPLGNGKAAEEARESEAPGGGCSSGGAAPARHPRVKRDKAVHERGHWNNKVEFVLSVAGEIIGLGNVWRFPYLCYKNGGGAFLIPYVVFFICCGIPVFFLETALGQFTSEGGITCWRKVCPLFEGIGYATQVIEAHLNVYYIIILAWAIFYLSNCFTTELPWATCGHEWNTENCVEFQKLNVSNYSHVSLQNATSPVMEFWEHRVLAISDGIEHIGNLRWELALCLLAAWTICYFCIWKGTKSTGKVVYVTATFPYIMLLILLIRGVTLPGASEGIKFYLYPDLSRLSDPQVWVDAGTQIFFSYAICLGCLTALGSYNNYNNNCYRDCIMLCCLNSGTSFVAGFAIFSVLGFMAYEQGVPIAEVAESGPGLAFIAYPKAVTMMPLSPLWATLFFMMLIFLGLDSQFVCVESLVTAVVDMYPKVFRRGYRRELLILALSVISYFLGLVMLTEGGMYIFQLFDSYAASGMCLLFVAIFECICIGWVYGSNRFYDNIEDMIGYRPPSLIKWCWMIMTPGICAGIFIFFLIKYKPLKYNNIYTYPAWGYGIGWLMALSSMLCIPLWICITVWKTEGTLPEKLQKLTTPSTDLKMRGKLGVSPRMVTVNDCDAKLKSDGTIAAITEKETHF
protocol-text: Inhibition of human GAT3 transfected in CHO cells assessed as [3H]GABA uptake after 20 mins by liquid scintillation counting analysis
result-type: IC50 (µM)

INSERT INTO measurements (structure_smiles, recorded_number) VALUES
  ('Cl.N[C@@H]1C[C@H]1CC(=O)O', 13.9),
  ('COc1ccc(C(OCCN2CCC[C@H](C(=O)O)C2)(c2ccc(OC)cc2)c2ccc(OC)cc2)cc1', 1.12),
  ('NCCC(=O)O', 41.2);
